Test system: K4 kissing-loop RNA reporter;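 note: bound reporter read as fluorescence of individual clusters on recovered sequencing chips by microscopy, with normalized cluster intensities fitted with a binding model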
protocol: apparent KD of K4 kissing-loop reporter; higher = weaker reporter binding
conditions_used: Eterna round: R107; input ligand: none
Note to self: values exactly at 0.08 µM are 1. So apparent KD of K4 kissing-loop reporter at or above 0.08 µM is 1, below is -1.

>  <primary_sequence>
UGACAUUGCUCAGAUACCAGACCUGAGGAUCACCCUGGUGCCAAACGUACAAUAAUAAAUGUCCCUUGGCAGCUGAGCAAUGUCU [TheoBX 14]

>  <answer_label>
-1

$$$$
>  <primary_sequence>
AAGCUCAGCGUGACUCGAUAAGAGUCACAACGAGGACCGGUACGGCCGCCACUCGAAAUAAGAGAGUGAUGUUCUCGCUGAGCAA [#SwitchBubble 6 #StaticStem #K4Late]

>  <answer_label>
1

$$$$
>  <primary_sequence>
UGGCAAGUGAUGUUUGCGUUUCCGCAGGAUACCAGUCUGUCUUGAGACCCUUGGCAGCCUGGGUACAGUCCAAGCGGUCACACGA [theeternabot_exclusion_KL_Theo_A_38]

>  <answer_label>
1

$$$$

Lookup: Identify whether the reported apparent KD of K4 kissing-loop reporter of the following sequence is 0.08 µM or greater: AAAAGAAGAAGUGAUACCAGACAAGCAGUGAUGUUGCGCCAAAGUGAGUGAUGUUCACCAGUCCCUUGGCAGCACAUGCCAAAAG [Same State Theophylline B GF 5]
Found: 1

----------
System: MS2 coat protein
protocol: apparent KD of MS2 coat protein; higher = weaker reporter binding
conditions_used: Eterna round: R107; input ligand: arginine 13.2 mM
endpoint: apparent KD of MS2 coat protein (nM)
Please reply with the bare figure in nM and do not write the unit itself.

>  <primary_sequence>
AGAAGUCCAGACUACACGUGGAAAAGCGAUACCAGACUCAUAGGUGUCCCUUGGCAGCGCGUAACAUGAGGAUCACCCAUGUGAU [theeternabot_exclusion_MS2_Theo_A_9]

>  <unit_info>
nM

>  <apparent KD of MS2 coat protein>
66.8

$$$$
>  <primary_sequence>
GCCAUCGGCGGAAGCCGAUGGUAUACAGAAGGAGCGUAGGAAACUACAGGUAGGUCGCUGGACAUGAGGAUCACCCAUGUAAUAG [#27 Same State - Arginine A]

>  <unit_info>
nM

>  <apparent KD of MS2 coat protein>
22.2

$$$$
>  <primary_sequence>
ACAUGAGGAUCACCCAUGUGGCGAGUUGAUACCAGACCCGCACUAGUCCCUUGGCAGCAACUACGUGUGGGACACCCAUGUUAAG [qpqmullin]

>  <unit_info>
nM

>  <apparent KD of MS2 coat protein>
35.1

$$$$

Lookup: For the sequence AAUAACAUGAGGAUCACCCAUGUAAGUGGGCGAGGACCGGUACGGCCGCCACUCGGAUGAUGUUGACGAAAAGUCAGCAUCAUCA [#OpenEnded 2 #GuTurnoff #Tail] , what apparent KD of MS2 coat protein is on record?
Found: 25.9

Lookup: Similarly, UACUUGCUGACGGCCGCCACUAGAACAUGAGGAUCACCCAUGUAUUCUAGUCGUCAUGGGUGGACUAGGACCGGGUCAGCAAGAU [(Trp1)-(Ms2)-(T)'-(M)'-(Trp2)_Design8] ?
Found: 30.7

----------
System: MS2 coat protein
protocol: apparent KD of MS2 coat protein; higher = weaker reporter binding
conditions_used: Eterna round: R107; input ligand: arginine 13.2 mM
Quick rule for you: apparent KD of MS2 coat protein at 20 nM or higher means Met, lower means Not met.

Sample answers from the record:
>  <primary_sequence>
AGUAUACAUUCUGAUACCAGAGACAUGAGGAUCACCCAUGUCCGAUCGUCCUGCCUCAGACUCCCUUGGCAGCAGGAUAUGUGCU [Exclusion Theophylline B GF5]

>  <answer_label>
Not met

$$$$
>  <primary_sequence>
GAGUAGUAGACGGCCGCCACUAAACAUGAGGAUCACCCAUGUAGUGAUCCGUUACCUAGCGUAGAUAGGACCGGGUCAGAUAGUA [Exclusion Tryptophan B GF 14]

>  <answer_label>
Met

$$$$
>  <primary_sequence>
AAACGUUGCUGCGAUACCAGACAUGAGGAUCACCCAUGUACCGAGGUACCCGAAAGGAAUGUCCCUUGGCAGCGCAGCAACGAAA [MAT - Exclusion Theophlline B - Mod of Eli - D24]

>  <answer_label>
Not met

$$$$
>  <primary_sequence>
GGAGGUACCUGAAGGAGCGACAUGAGGAUCACCCAUGUCUCCCGUUAUGGGAGUUCUUUAGGUCAGGUAGGUCGCAGGUACCUCC [#1 Exclusion - Arginine B Attempt #3 (Inspired by Omei)]

>  <answer_label>
Not met

$$$$

Now examine the next entry.
Lookup: Is it the case that AUGUCAUUGGUGCAGCUGUUAAAUGGCGAUACCAGCGUGGAAACACGCCCUUGGCAGCGCCAAAACAUGAGGAUCACCCAUGUUA [Zlin] has apparent KD of MS2 coat protein reaching or exceeding 20 nM?
Found: Met
